Catalogue of compounds with associated melting point

O=C1NC(=O)C(=O)C(=O)N1 :: 255 to 257 °C

response.value for "Cc1ccccc1CC(=O)Nc1ccc(C(=O)O)c(O)c1" (field: melting point) = 222 to 224 °C

# compound "CCOc1cc(Br)c(CC(=O)O)cc1OCC" ; its melting point = 128 to 129 °C

The measured melting point associated with "CCOc1ccc(C(=O)CC)cc1OCC" reads 39 to 41 °C

Per the record, CC(Cl)c1nc2cc(Cl)ccc2n1Cc1ccccc1 (stereo not given) has melting point of 110 to 112 °C

---

QUANTITY MEASURED: melting point

Example entries and their recorded answers appear below.
CC(CCNC(N)=O)c1ccccc1 (configuration not stated) :: 77 to 79 °C
CC(C)Oc1ccccc1CC(=O)O :: 92 to 94 °C
O=C(O)CCCc1ccc2ccccc2c1 :: 91 to 93 °C

Short answer for "COc1ccc(NC(=S)NN)cn1" : melting point was 154 to 156 °C

The compound listed as "Cc1ccc(-c2csc(Cl)n2)cc1" has a reported melting point of 93 to 95 °C

Lookup result for "N#CCSc1ccc(C(=O)O)cc1" ; measured melting point: 269 to 271 °C

For reference, reported melting point for "Cc1c(S(=O)(=O)Cl)cnn1-c1ccc(F)cc1" stands at 96 to 98 °C

Entry under test: CS(=O)c1ccccc1C(=O)O (configuration not stated) . Its melting point was 130 to 135 °C

compound "C#CCOc1ccccc1O" , melting point observed: 48 to 50 °C

The compound listed as CC(Cl)C(=O)N1c2ccccc2Sc2ccccc21 (configuration not stated) shows melting point equal to 118 to 120 °C

Short answer for CC(C)(C)c1ccc(C(=O)N2CSCC2C(=O)O)cc1 (configuration not stated) : melting point was 180 to 182 °C

Consider "c1ccc(-c2nc[nH]n2)cc1" . Its measured melting point is 117 to 119 °C

---

QUANTITY MEASURED: melting point

Sample answers from the record:
Cc1nn(-c2ccccc2)c(C)c1C(O)C(F)(F)F (centres undefined) :: 162 to 164 °C
N#Cc1cc(N)c(Cl)c([N+](=O)[O-])c1 :: 205 to 207 °C
Cc1ccc(-c2noc(CCC(=O)O)n2)cc1F :: 142 to 144 °C
Cc1cc(C=O)c(C)n1CC(C)C :: 43 to 47 °C
O=Cc1cncc2ccccc12 :: 103 to 105 °C

Note to self: melting point recorded for "Nc1ccc(-n2ccnc2)cc1" was 143 to 147 °C

Kindly note the recorded melting point for "CC(=O)Nc1cc(NC(C)=O)cc(C(=O)O)c1" , which is 187 to 189 °C

Recorded result, "NNc1ncccn1" , melting point: 90 to 92 °C

Form field melting point, entry "O=Cc1nc(-c2cc(Cl)ccc2Cl)cs1" : 112 to 114 °C

---

Recorded melting point for the following compounds

Some solved cases for reference:
Cc1cc(Cl)cc([N+](=O)[O-])c1I :: 73 to 75 °C
Cc1cccc(-c2nc3cc(Cl)ccc3[nH]2)c1O :: 249 to 251 °C

Entry "Cc1cc(NN)nc2c(C)cccc12" ; melting point = 168 to 170 °C

The compound listed as Nc1cc(CC2CC3CCC2C3)no1 (stereo not given) has a reported melting point of 86 to 88 °C

melting point reported for this compound "CCOC(=O)c1snc(C(N)=O)c1N" : 205 to 207 °C

The compound listed as "Cc1ccc(SCC(=O)Nc2ccccc2C)c(N)c1" has a reported melting point of 115 to 117 °C

# melting point of "CC(=O)Nc1ccc(S(=O)(=O)N2CCC(=O)CC2)cc1" = 145 to 147 °C

Sure, the documented melting point for "Nc1ccn(Cc2ccncc2)n1" is 122 to 124 °C

Per the records, this compound ( "CC(C)Oc1ccc(/C=C/C(=O)O)cc1" ) has melting point equal to 156 to 158 °C

The recorded melting point for "Cc1ccc2c(Cl)cc(Cl)c(OCC(=O)O)c2n1" is 209 to 211 °C

According to the records, this compound "CCOc1cc(C(=O)O)c([N+](=O)[O-])cc1OC" displays melting point of 213 to 215 °C

---

compounds and their reported melting point

CNC1CCC(NC(=O)OC(C)(C)C)CC1 (stereo not drawn) :: 72 to 74 °C
CC1CCc2c(sc3nc(S)nc(S)c23)C1 (stereo not drawn) :: 337 to 339 °C

Lab note: next compound to report on.
Quick note, melting point for CNC(C(=O)O)c1cc(F)c(F)c(F)c1 (stereo not drawn) landed at 247 to 249 °C

---

melting point listing for selected compounds.

CN(C)CCN1C(=O)C=CC1=O :: 44 to 46 °C

Short answer for "BrCc1ccc2c(c1)COC2" : melting point was 49 to 51 °C

Query "Cc1ccc(CC(=O)c2ccc(C)cc2)cc1" yields melting point of 100 to 102 °C

Form: compound = "CC1(C)CN(C(=O)OC(C)(C)C)c2ccccc2N1" ; melting point = 92 to 94 °C

---

The following compounds are shown together with reported melting point values.

CS(=O)(=O)N1CCC(=O)CC1 :: 97 to 99 °C
O=S(=O)(Cl)c1cncc(F)c1 :: 35 to 37 °C
O=C(O)c1cccc(Oc2cnccn2)c1 :: 112 to 114 °C
CC(C)(C)OC(=O)Nc1ccc(O)cc1 :: 131 to 133 °C
C#CCN1CCC[C@H]1C(=O)O :: 151 to 153 °C
COC(=O)C1CNNC(=O)C1 (stereo not drawn) :: 119 to 121 °C

The recorded melting point for entry "Nc1cc(-c2ccco2)ccc1F" equals 40 to 42 °C

Sample "O=C(O)c1cnc2c(OC(F)(F)F)cccc2c1O" ; melting point observed: 259 to 261 °C

Lookup result for O=C(O)C1CC(=O)N(C2CCCC2)C1 (stereo not drawn) ; measured melting point: 136 to 138 °C

Kindly note the recorded melting point for "Nc1cc(CC2CCCCC2)n[nH]1" , which is 72 to 74 °C

The compound "Nc1ccc(C(=O)O)nc1Br" showed melting point equal to 206 to 208 °C

Looking up "NC(=O)c1ccn(-c2ccccc2)n1" , I see its melting point listed as 149 to 151 °C

Recorded result, "O=C(O)c1ccc(S(=O)(=O)Nc2ccccc2F)cc1" , melting point: 266 to 268 °C

Value of melting point reported for the compound O=C(O)C(NC1CC1)c1cc(Br)cs1 (stereo not drawn) is 155 to 157 °C

"N#Cc1ccc(NCCC(N)=O)c(F)c1" has a reported melting point of 156 to 158 °C

For record "O=[N+]([O-])c1ccc(F)cc1NC1CC1" the listed melting point is 69 to 71 °C

Lab note: "Nc1cccc(C(=O)N2CCC(CO)CC2)c1" gave melting point of 155 to 157 °C

The compound listed as CC(C)C(Br)C(=O)N1CCCCC1 (stereo not drawn) has a reported melting point of 61 to 63 °C

---

QUANTITY MEASURED: melting point

Here is how some compounds turned out for melting point.
Cn1ccnc1C(=O)c1ccc(Cl)c([N+](=O)[O-])c1 :: 145 to 147 °C
CCOC(=O)c1c(Cl)c2ncc(S(=O)(=O)Cl)cc2n1C :: 141 to 143 °C

Next:
For record "CC(C)(C)OC(=O)Nc1cnsn1" the listed melting point is 93 to 95 °C

---

Quick reference for melting point among some compounds

NC(=S)COCc1ccccc1 :: 43 to 45 °C
Nc1ccnc2nc(C(F)(F)F)nn12 :: 221 to 223 °C

Given item "CC(C)(C)Cc1cc(N)n[nH]1" , the value recorded as its melting point is 106 to 108 °C

Sample "CCOC(=O)c1c(C)[nH]c(C(=O)O)c1C" ; melting point observed: 204 to 206 °C

Reported melting point of "CNC(=O)COc1ccc(N)c(F)c1" : 81 to 83 °C

Consider "O=S(=O)(CCCl)c1cc(Cl)ccc1Cl" . Its measured melting point is 80 to 82 °C

melting point reported for this compound "O=S(=O)(Cl)c1ccc2nc(Cl)c(Cl)nc2c1" : 88 to 90 °C

Briefly, melting point measured for "CN(CC(=O)NC(C)(C)C)CC(N)=S" : 123 to 125 °C

---

# melting point annotations

Check out these entries, answers already filled in.
O=Cc1cc(Br)ccc1OCc1ccccn1 :: 138 to 140 °C
Cc1nc2ccccn2c1P(c1ccccc1)c1ccccc1 :: 98 to 100 °C
COC(=O)c1ccc(C(N)=S)cc1 :: 189 to 191 °C
O=C(O)c1ccc2c(c1)S(=O)(=O)N(CC1CCCO1)C2=O (stereo unspecified) :: 159 to 161 °C
O=c1c(Cl)c(Cl)cnn1-c1ccc(S(=O)(=O)Cl)cc1 :: 144 to 146 °C
CC(C)(C)OC(=O)NC1CCN(C2CCNC2)CC1 (stereo unspecified) :: 108 to 110 °C
CC(C)(C)c1ccc(C(=O)C(=O)O)cc1 :: 67 to 69 °C
O=C1CN(c2cc(Cl)ccc2Cl)CC(=O)N1 :: 139 to 141 °C
Nc1ccc(OCC(F)(F)F)c(C(F)(F)F)c1 :: 48 to 50 °C
CCC(=O)N(C)c1ccccc1C(=O)O :: 193 to 195 °C

melting point in this record for "Oc1ccc(Sc2ccnc3cc(Cl)ccc23)cc1" : 231 to 233 °C

Short answer for "CCCN1C(=O)NC(C)(C)C1=O" : melting point was 109 to 111 °C
